I'd be grateful if you could share measured pIC50 for these entries.
- tested on: full-length beta-Catenin (Uniprot ID P35222) (Homo sapiens, UniProt P35222)
- Construct: 10 nM full-length beta-Catenin (Uniprot ID P35222)
- test: Fluorescence polarization IC50 (beta-catenin / 5FAM-TCF4 10-53 competition)
- Format: binding
- settings: fluorescence polarization; read-out: beta-Catenin FP IC50
Give bare numbers, as −log10 of the molar value.

CC(=O)N1CCC[C@]12CC=CCCCC1(CCCC=CCCCOC(=O)N3CC[C@@](C(=O)N[C@@H](Cc4ccsc4)C(=O)N[C@@H](Cc4csc5ccccc45)C(=O)N[C@@H](CCC(N)=O)C(N)=O)(C3)NC(=O)[C@H](CCC(=O)N3CC[C@@H](N(C)C)C3)NC(=O)[C@H](Cc3ccccc3)NC(=O)[C@H](C)NC(=O)[C@H](C)NC(=O)[C@H](CN(CC(=O)O)CC(F)(F)F)NC(=O)[C@H](CC(=O)O)NC1=O)NC(=O)[C@H](CC(C)(C)C)NC(=O)[C@H](CC(=O)O)NC2=O (stereo partly shown) [I-1939] : 8.00
CC(=O)N1CCC[C@]12CC=CCCCC1(CCCC=CCCOC(=O)N3CC[C@@](C(=O)N[C@@H](Cc4ccsc4)C(=O)N[C@@H](Cc4csc5ccccc45)C(=O)N[C@@H](CCC(N)=O)C(N)=O)(C3)NC(=O)[C@H](CC(N)=O)NC(=O)[C@H](Cc3ccccc3)NC(=O)[C@H](C)NC(=O)[C@H](C)NC(=O)[C@H](CC(=O)O)NC(=O)[C@H](CC(=O)O)NC1=O)NC(=O)[C@H](CC(C)(C)C)NC(=O)[C@H](CC(=O)O)NC2=O (stereo partly shown) [I-1813] : 7.59
CC(=O)N1CCC[C@]12CC=CCCCC1(CCCC=CCCCCCC[C@@](C)(C(=O)N[C@@H](Cc3ccccc3)C(=O)N[C@@H](Cc3csc4ccccc34)C(=O)N[C@@H](CCC(N)=O)C(N)=O)NC(=O)[C@H](CCO)NC(=O)[C@H](Cc3ccccc3)NC(=O)[C@H](C)NC(=O)[C@H](C)NC(=O)[C@H](CCC(=O)O)NC(=O)[C@H](CC(=O)O)NC1=O)NC(=O)[C@H](CCO)NC(=O)[C@H](CC(=O)O)NC2=O (stereo partly shown) [I-1547] : 7.17

Now, please, on to the next compound.
Fill in reported pIC50 for this entry: CC(=O)N1CCC[C@]12CC=CCCCC1(CCCC=CCCCOC(=O)N3CC[C@@](C(=O)N[C@@H](Cc4ccsc4)C(=O)N[C@@H](Cc4csc5ccccc45)C(=O)N[C@@H](CCC(N)=O)C(N)=O)(C3)NC(=O)[C@H](CC(N)=O)NC(=O)[C@H](Cc3ccccc3)NC(=O)[C@H](C)NC(=O)[C@H](C)NC(=O)[C@H](Cc3ccc(O)cc3)NC(=O)[C@H](CC(N)=O)NC1=O)NC(=O)[C@H](CC(C)(C)C)NC(=O)[C@H](CC(=O)O)NC2=O (stereo partly shown) [I-1569]
5.57

----------
- tested on: beta-catenin/TCF4 engagement (Homo sapiens, UniProt P35222)
- Construct: expressed in transfected cells; host or cells: HEK293
- test: Nano-BRET target engagement assay (B-cat-Halo & TCF4-Luc in HEK293 cells)
- Type: cell-based
- settings: absolute IC50; read-out: NanoBRET Abs IC50
I'd be grateful if you could share measured pIC50 for these entries.
Answers are plain numbers, as −log10 of the molar value.

CC(=O)N1CCC[C@]12CC=CCCCC1(CCCC=CCCCCCC[C@@](C)(C(=O)N[C@@H](Cc3ccccc3Cl)C(=O)N[C@@H](Cc3csc4ccccc34)C(=O)N[C@@H](CCO)C(N)=O)NC(=O)[C@H](CCO)NC(=O)[C@H](Cc3ccccc3)NC(=O)[C@H](C)NC(=O)[C@H](C)NC(=O)[C@H](CN(CC(=O)O)CC(F)(F)F)NC(=O)[C@H](CC(=O)O)NC1=O)NC(=O)[C@H](CC(C)(C)C)NC(=O)[C@H](CC(=O)O)NC2=O (stereo partly drawn) : 4.62

Now, please, on to the next molecule.
Fill in reported pIC50 for this entry: CC(=O)N1CCC[C@]12CC=CCCCC1(CCCC=CCCCOC(=O)N3CC[C@@](C(=O)N[C@@H](Cc4ccccc4C(F)(F)F)C(=O)N[C@@H](Cc4csc5ccccc45)C(=O)N[C@@H](CCC(N)=O)C(N)=O)(C3)NC(=O)[C@H](CC(C)C)NC(=O)[C@H](Cc3ccccc3)NC(=O)[C@H](C)NC(=O)[C@H](C)NC(=O)[C@H](Cc3ccccc3C(=O)O)NC(=O)[C@H](CC(=O)O)NC1=O)NC(=O)[C@H](CC(C)(C)C)NC(=O)[C@H](CC(=O)O)NC2=O (stereo partly drawn)
4.96

----------
- tested on: beta-catenin/TCF4 engagement (Homo sapiens, UniProt P35222)
- Construct: expressed in transfected cells; host or cells: HEK293
- Sequence (P35222 1-781): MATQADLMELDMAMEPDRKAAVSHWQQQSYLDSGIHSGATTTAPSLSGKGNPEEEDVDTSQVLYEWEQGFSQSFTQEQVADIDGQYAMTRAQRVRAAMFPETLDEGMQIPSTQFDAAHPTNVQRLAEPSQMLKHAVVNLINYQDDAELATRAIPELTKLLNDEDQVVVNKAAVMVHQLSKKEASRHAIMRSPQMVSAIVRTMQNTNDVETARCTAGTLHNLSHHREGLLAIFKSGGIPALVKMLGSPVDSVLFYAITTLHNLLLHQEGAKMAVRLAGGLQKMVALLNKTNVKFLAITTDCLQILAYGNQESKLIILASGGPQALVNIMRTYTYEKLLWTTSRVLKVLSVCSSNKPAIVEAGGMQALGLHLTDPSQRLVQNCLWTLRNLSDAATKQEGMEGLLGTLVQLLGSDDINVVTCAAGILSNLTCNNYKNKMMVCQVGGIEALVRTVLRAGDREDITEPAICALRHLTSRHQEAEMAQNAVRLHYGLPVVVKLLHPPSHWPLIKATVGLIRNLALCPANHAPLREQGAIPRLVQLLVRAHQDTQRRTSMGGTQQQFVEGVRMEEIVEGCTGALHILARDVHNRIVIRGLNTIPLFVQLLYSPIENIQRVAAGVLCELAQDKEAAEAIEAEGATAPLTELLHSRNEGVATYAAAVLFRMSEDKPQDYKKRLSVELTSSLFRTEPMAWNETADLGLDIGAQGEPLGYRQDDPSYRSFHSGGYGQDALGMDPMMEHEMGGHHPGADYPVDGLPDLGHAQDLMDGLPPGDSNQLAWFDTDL
- test: Nano-BRET target engagement assay (B-cat-Halo & TCF4-Luc in HEK293 cells)
- Assay type: cell-based
- settings: read-out: NanoBRET Abs IC50
I'd be grateful if you could share measured IC50 for these entries.

Some entries whose results are on file:
CC(=O)N1CCC[C@]12CC=CCCCC1(CCCC=CCCCOC(=O)N3CC[C@@](C(=O)N[C@@H](Cc4ccccc4)C(=O)N[C@@H](Cc4csc5ccccc45)C(=O)N[C@@H](CC(N)=O)C(N)=O)(C3)NC(=O)[C@H](CC(N)=O)NC(=O)[C@H](Cc3ccccc3)NC(=O)[C@H](C)NC(=O)[C@H](CCCCNC(C)C)NC(=O)[C@H](CCC(N)=O)NC(=O)[C@H](CC(=O)O)NC1=O)NC(=O)[C@H](CC1CCCCC1)NC(=O)[C@H](CC(N)=O)NC2=O (stereo partly drawn) : > 20 µM
CC(=O)N1CCC[C@]12CCCCC1(CCCCCCCCOC(=O)N3CC[C@](C(=O)N[C@@H](Cc4ccsc4)C(=O)N[C@@H](Cc4csc5ccccc45)C(=O)N[C@@H](CCC(N)=O)C(N)=O)(C3)NC(=O)[C@H](CC(C)C)NC(=O)[C@H](Cc3ccccc3)NC(=O)[C@H](C)NC(=O)[C@H](C)NC(=O)[C@H](CC(=O)O)NC(=O)[C@H](CC(=O)O)NC1=O)NC(=O)[C@H](CC(C)(C)C)NC(=O)[C@H](CC(=O)O)NC2=O (stereo partly drawn) : > 20 µM

Now, please, on to the next molecule.
Please respond with reported IC50 (system beta-catenin/TCF4 engagement (Homo sapiens, UniProt P35222)) for CC(=O)N1CCC[C@]12CC=CCCCC1(CCCC=CCCCOC(=O)N3CC[C@@](C(=O)N[C@@H](Cc4ccsc4)C(=O)N[C@@H](Cc4csc5ccccc45)C(N)=O)(C3)NC(=O)[C@H](CC(N)=O)NC(=O)[C@H](Cc3ccccc3)NC(=O)[C@H](C)NC(=O)[C@H](C)NC(=O)[C@H](Cc3c[nH]cn3)NC(=O)[C@H](CC(=O)O)NC1=O)NC(=O)[C@H](CC(C)(C)C)NC(=O)[C@H](CC(=O)O)NC2=O (stereo partly drawn) .
> 20 µM

----------
- tested on: full-length beta-Catenin (Uniprot ID P35222) (Homo sapiens, UniProt P35222)
- Construct: 10 nM full-length beta-Catenin (Uniprot ID P35222)
- test: Fluorescence polarization IC50 (beta-catenin / 5FAM-TCF4 10-53 competition)
- Format: binding
- settings: fluorescence polarization; read-out: beta-Catenin FP IC50
measured quantity: pIC50
Answers are plain numbers, as −log10 of the molar value.

Some entries whose results are on file:
CCCCCCSSCCOC(=O)C[C@@H]1NC(=O)C2(CCCC=CCCCOC(=O)N3CC[C@@](C(=O)N[C@@H](Cc4ccsc4)C(=O)N[C@@H](Cc4csc5ccccc45)C(=O)N[C@@H](CCC(N)=O)C(N)=O)(C3)NC(=O)[C@H](CC(C)C)NC(=O)[C@H](Cc3ccccc3)NC(=O)[C@H](C)NC(=O)[C@H](C)NC(=O)[C@H](CC(=O)O)NC1=O)CCCC=CC[C@]1(CCCN1C(C)=O)C(=O)N[C@@H](CC(=O)O)C(=O)N[C@@H](CC(C)(C)C)C(=O)N2 (stereo partly shown) : 5.68
CC(=O)NCCCC[C@@H]1NC(=O)[C@H](Cc2ccccc2)NC(=O)[C@H](C)NC(=O)[C@H](C)NC(=O)[C@H](Cc2cccc(C(=O)O)c2)NC(=O)[C@H](CC(=O)O)NC(=O)C2(CCCC=CCCCOC(=O)N3CC[C@@](C(=O)N[C@@H](Cc4ccccc4C(F)(F)F)C(=O)N[C@@H](Cc4csc5ccccc45)C(=O)N[C@@H](CCC(=O)N4CCOCC4)C(N)=O)(C3)NC1=O)CCCC=CC[C@]1(CCCN1C(C)=O)C(=O)N[C@@H](CC(=O)O)C(=O)N[C@@H](CC(C)(C)C)C(=O)N2 (stereo partly shown) [I-2548] : 7.96
CC(=O)N1CCC[C@]12CC=CCCCC1(CCCC=CCCCOC(=O)N3CC[C@@](C(=O)N[C@@H](Cc4ccccc4C(F)(F)F)C(=O)N[C@@H](Cc4csc5ccccc45)C(=O)N[C@@H](CCC(N)=O)C(=O)N[C@@H](CC(C)C)C(=O)N[C@H](C)C(N)=O)(C3)NC(=O)[C@H](CC(C)C)NC(=O)[C@H](Cc3ccccc3)NC(=O)[C@H](C)NC(=O)[C@H](C)NC(=O)[C@H](Cc3cccc(C(=O)O)c3)NC(=O)[C@H](CC(=O)O)NC1=O)NC(=O)[C@H](CC(C)(C)C)NC(=O)[C@H](CC(=O)O)NC2=O (stereo partly shown) : 7.55

Now, please, on to the next molecule.
Please respond with reported pIC50 (system full-length beta-Catenin (Uniprot ID P35222) (Homo sapiens, UniProt P35222)) for CC(=O)N1CCC[C@]12CC=CCCCC1(CCCC=CCCCOC(=O)N3CC[C@@](C(=O)N[C@@H](Cc4ccccc4Cl)C(=O)N[C@@H](Cc4csc5ccccc45)C(=O)N[C@@H](CCCN4CCC(F)(F)CC4)C(N)=O)(C3)NC(=O)[C@H]([C@@H](C)O)NC(=O)[C@H](Cc3ccccc3)NC(=O)[C@H](C)NC(=O)[C@H](C)NC(=O)[C@H](CN(CC(=O)O)CC(F)(F)F)NC(=O)[C@H](CC(=O)O)NC1=O)NC(=O)[C@H](CC(C)(C)C)NC(=O)[C@H](CC(=O)O)NC2=O (stereo partly shown) .
7.31

The values you see were collected from patent US20240116985A1.
